B1: glmS ribozyme (parent)
chain: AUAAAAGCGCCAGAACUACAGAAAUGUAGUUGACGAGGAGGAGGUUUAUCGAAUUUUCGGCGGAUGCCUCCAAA

# Variants of: B1
# protocolSummary: kcat; higher = faster cleavage; RNA array
# measurementParameters: with glucosamine-6-phosphate
This sample holds only a part of the variants without activity.
Please enter Satisfied where kcat is greater than or equal to 0.0003 s⁻¹, and Not satisfied where it is lower.

Known results for variants:
U30A U46C : Satisfied
A48U U54G : Satisfied

Alright, here's another variant for you.
Could you please find out whether C50U A64C has kcat that meets 0.0003 s⁻¹ or exceeds it?
Not satisfied
